Value source: patent US20260242478A1

Target: T1, PSMA Fab (006 PSMA Fab) (biotinylated (site not stated))
T1 construct: That the same Fab was used in the panning ELISA is inferred; also called Anti-PSMA Fab; anti-PSMA Fab
Assay: clonal phage ELISA on captured anti-PSMA Fab pre-incubated with PSMA antigen (competitor: PSMA)
# label = true (1) if phage binding ELISA signal in the presence of PSMA >= 0.08 else false (0)

- LEIMCRPEWMCSGF (Peptide-180 library clone, tested as clonal phage supernatant; not shown: fused to the pIII filament protein of the bacteriophage) [Phage-3425]: true (1)
- NDVKCIPEWMCVGF (Peptide-180 library clone, tested as clonal phage supernatant; not shown: fused to the pIII filament protein of the bacteriophage) [Phage-3420]: true (1)
- SSMLCIPTWMCGGF (Peptide-180 library clone, tested as clonal phage supernatant; not shown: fused to the pIII filament protein of the bacteriophage) [Phage-3427]: false (0)
- EDILCKPVWMCIGF (Peptide-180 library clone, tested as clonal phage supernatant; not shown: fused to the pIII filament protein of the bacteriophage) [Phage-3431]: false (0)
- SLPICKPEWMCVGL (Peptide-180 library clone, tested as clonal phage supernatant; not shown: fused to the pIII filament protein of the bacteriophage) [Phage-3429]: true (1)
